The molecules listed here are annotated with their AC50.
- assay_target: human PAH with the R408W mutation (Homo sapiens, UniProt P00439, R408W)
- Construct: expressed in transfected cells
- Sequence (P00439 whole entry R408W): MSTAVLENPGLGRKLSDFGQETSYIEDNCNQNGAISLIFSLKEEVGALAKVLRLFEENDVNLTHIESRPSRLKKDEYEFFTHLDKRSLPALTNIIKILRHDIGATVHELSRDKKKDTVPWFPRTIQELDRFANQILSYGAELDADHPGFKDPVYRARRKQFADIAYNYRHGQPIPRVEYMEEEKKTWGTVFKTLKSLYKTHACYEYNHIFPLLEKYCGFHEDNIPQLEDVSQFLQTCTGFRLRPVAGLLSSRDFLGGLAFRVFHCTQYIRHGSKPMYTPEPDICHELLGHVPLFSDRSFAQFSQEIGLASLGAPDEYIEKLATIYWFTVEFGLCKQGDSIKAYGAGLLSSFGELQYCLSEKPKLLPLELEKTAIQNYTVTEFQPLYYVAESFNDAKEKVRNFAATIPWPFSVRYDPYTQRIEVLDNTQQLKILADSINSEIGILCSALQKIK
- assay_explanation: Cell Based Phenylalanine Flux Assay
- measurement_setup: A375 cells expressing human R408W PAH; 24 hrs with compound, then sepiapterin and 13C9,15N-Phenylalanine for 4 hours; 13C-Tyrosine by LC-MS; average where tested multiple times; read-out: AC50

Examples with answers:
Lab book: AC50 of CC(F)(F)c1nnc(N2CCc3[nH]cnc3[C@H]2c2cc3c(Cl)cccn3n2)o1 noted as < 500 nM

Lab book: AC50 of CN(C)c1ccc2c(C(=O)N3CCc4[nH]cnc4[C@@H]3c3cc4cccc(Cl)n4n3)cnn2c1 noted as > 5000 nM

Lab book: AC50 of CCc1cccn2nc([C@@H]3c4nc[nH]c4CCN3C(=O)c3nnc(-c4ccn(C)n4)o3)cc12 noted as < 500 nM

Now take the following molecule into account.
Lab book: AC50 of Cc1cccc(-c2nnc(N3CCc4[nH]cnc4[C@H]3c3cc4ccccn4n3)o2)n1 noted as 1000 to 5000 nM

* * *

- assay_target: human PAH with the R408W mutation (Homo sapiens, UniProt P00439, R408W)
- Construct: expressed in transfected cells
- assay_explanation: Cell Based Phenylalanine Flux Assay
- measurement_setup: A375 cells expressing human R408W PAH; 24 hrs with compound, then sepiapterin and 13C9,15N-Phenylalanine for 4 hours; 13C-Tyrosine by LC-MS; average where tested multiple times; read-out: AC50
The molecules listed here are annotated with their AC50.

human PAH with the R408W mutation (Homo sapiens, UniProt P00439, R408W) AC50 of Cc1cccc(-c2nnc(C(=O)N3CCc4[nH]cnc4[C@@H]3c3cc4c(F)cccn4n3)o2)n1 [Example 1471] is 1000 to 5000 nM

human PAH with the R408W mutation (Homo sapiens, UniProt P00439, R408W) AC50 of O=C(c1nnc(C2CC(F)(F)C2)o1)N1CCc2[nH]cnc2[C@H]1c1cc2c(Cl)cccn2n1 [Example 1587] is < 500 nM

human PAH with the R408W mutation (Homo sapiens, UniProt P00439, R408W) AC50 of Cc1cccn2nc([C@@H]3c4nc[nH]c4CCN3C(=O)c3cnc(C(C)(C)F)o3)cc12 [Example 1959] is < 500 nM

human PAH with the R408W mutation (Homo sapiens, UniProt P00439, R408W) AC50 of Cc1cccc2cc([C@H]3c4nc[nH]c4CCN3c3nnc(-c4ccccn4)o3)nn12 [Example 1641] is > 5000 nM

human PAH with the R408W mutation (Homo sapiens, UniProt P00439, R408W) AC50 of Cn1cc(-c2nc(C3CC3)c(C(=O)N3CCc4[nH]cnc4[C@H]3c3cc4c(C(F)(F)F)cccn4n3)o2)cn1 [Example 2116] is < 500 nM

Continuing:
human PAH with the R408W mutation (Homo sapiens, UniProt P00439, R408W) AC50 of Cc1cccn2nc([C@H]3c4nc[nH]c4CCN3C(=O)c3cnc(-c4cnn(C)c4C)o3)cc12 [Example 1963] is > 5000 nM

human PAH with the R408W mutation (Homo sapiens, UniProt P00439, R408W) AC50 of CC(C)c1cccn2nc([C@@H]3c4nc[nH]c4CCN3c3nnc(-c4cccnc4)o3)cc12 [Example 2261] is 500 to 1000 nM

* * *

The molecules listed here are annotated with their AC50.
- assay_target: human PAH with the R408W mutation (Homo sapiens, UniProt P00439, R408W)
- Construct: expressed in transfected cells
- assay_explanation: Cell Based Phenylalanine Flux Assay
- measurement_setup: A375 cells expressing human R408W PAH; 24 hrs with compound, then sepiapterin and 13C9,15N-Phenylalanine for 4 hours; 13C-Tyrosine by LC-MS; average where tested multiple times; read-out: AC50

Examples with answers:
Lab book: AC50 of CC1(c2nnc(N3CCc4[nH]cnc4[C@@H]3c3cc4c(Cl)cccn4n3)o2)CC1 noted as > 5000 nM

Lab book: AC50 of O=C(c1nnc(-c2cnccn2)o1)N1CCc2[nH]cnc2[C@H]1c1cc2c(C3CC3)cccn2n1 noted as 500 to 1000 nM

Lab book: AC50 of Clc1cccn2nc([C@H]3c4nc[nH]c4CCN3c3nnc(-c4cccnc4)o3)cc12 noted as > 5000 nM

Lab book: AC50 of Cc1cnn(C)c1-c1nnc(C(=O)N2CCc3[nH]cnc3[C@H]2c2cc3c(C(F)F)cccn3n2)o1 noted as < 500 nM

Lab book: AC50 of CC(C)c1nnc(N2CCc3[nH]cnc3C2c2cc3c(F)cccn3n2)o1 (stereo in doubt) noted as 500 to 1000 nM

Lab book: AC50 of CC1(c2nnc(N3CCc4[nH]cnc4[C@@H]3c3cc4c(C5CC5)cccn4n3)o2)CC1 noted as > 5000 nM

Continuing:
Lab book: AC50 of Cn1nccc1-c1nnc(C(=O)N2CCc3[nH]cnc3[C@H]2c2cc3cccc(F)n3n2)o1 noted as 500 to 1000 nM

* * *

- assay_target: human PAH with the R408W mutation (Homo sapiens, UniProt P00439, R408W)
- Construct: expressed in transfected cells
- assay_explanation: Cell Based Phenylalanine Flux Assay
- measurement_setup: A375 cells expressing human R408W PAH; 24 hrs compound incubation; 13C-Tyrosine by LC-MS; average where tested multiple times; read-out: AC50
The compounds listed here are annotated with their AC50.

Examples with answers:
human PAH with the R408W mutation (Homo sapiens, UniProt P00439, R408W) AC50 of O=C(c1nnc(-c2ccccn2)o1)N1CCc2[nH]cnc2[C@@H]1c1cc2c(C(F)F)cccn2n1 [Example 1315] is 1000 to 5000 nM

human PAH with the R408W mutation (Homo sapiens, UniProt P00439, R408W) AC50 of O=C(c1nnc(-c2cnccn2)o1)N1CCc2[nH]cnc2[C@@H]1c1cc2c(Cl)cccn2n1 [Example 1333] is 1000 to 5000 nM

Continuing:
human PAH with the R408W mutation (Homo sapiens, UniProt P00439, R408W) AC50 of O=C(c1nnc(-c2ccccn2)o1)N1CCc2[nH]cnc2[C@@H]1c1cc2c(F)cccn2n1 [Example 732] is > 5000 nM

human PAH with the R408W mutation (Homo sapiens, UniProt P00439, R408W) AC50 of O=C(c1ocnc1C(F)F)N1CCc2[nH]cnc2[C@H]1c1cc2cccc(Cl)n2n1 [Example 958] is < 500 nM

human PAH with the R408W mutation (Homo sapiens, UniProt P00439, R408W) AC50 of Cc1c([C@H]2c3nc[nH]c3CCN2C(=O)c2oc(C(C)(C)O)nc2C(F)F)nn2ccccc12 [Example 787] is 1000 to 5000 nM

human PAH with the R408W mutation (Homo sapiens, UniProt P00439, R408W) AC50 of COc1ccc(-c2nnc(C(=O)N3CCc4[nH]cnc4[C@H]3c3cc4c(F)cccn4n3)o2)nc1 [Example 788] is < 500 nM

human PAH with the R408W mutation (Homo sapiens, UniProt P00439, R408W) AC50 of O=C(CC1CC(F)C1)N1CCc2[nH]cnc2[C@H]1c1cc2ccccn2n1 (some centres unmarked) [Example 636] is < 500 nM

human PAH with the R408W mutation (Homo sapiens, UniProt P00439, R408W) AC50 of Cn1cc(-c2nnc(C(=O)N3CCc4[nH]cnc4[C@@H]3c3cc4cccc(Cl)n4n3)o2)cn1 [Example 1067] is > 5000 nM

* * *

- assay_target: human PAH with the R408W mutation (Homo sapiens, UniProt P00439, R408W)
- Construct: expressed in transfected cells
- assay_explanation: Cell Based Phenylalanine Flux Assay;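 note: Ten-point dose curve from 2-fold serial dilutions, run in duplicate at 0.5% DMSO final, tracer step used 20 µM sepiapterin and 800 µM labeled phenylalanine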
- measurement_setup: A375 cells expressing R408W PAH; 24 hrs with compound, then 20 μM sepiapterin and 800 μM 13C9,15N-Phenylalanine for 4 hours; 13C-Tyrosine in media by LC-MS; average where tested multiple times; read-out: AC50
The compounds listed here are annotated with their AC50.

Examples with answers:
Lab book: AC50 of O=C(c1nnc(C2CC(F)(F)C2)o1)N1CCc2[nH]cnc2[C@H]1c1cc2cccc(C(F)F)n2n1 (single isomer, unassigned) noted as 1 to 5 µM

Lab book: AC50 of Cn1nc(C(F)F)nc1C(=O)N1CCc2[nH]cnc2[C@H]1c1cc2ccc(F)cn2n1 (single isomer, unassigned) noted as 1 to 5 µM

Lab book: AC50 of Cc1c([C@@H]2c3nc[nH]c3CCN2C(=O)c2nnc(C(C)(C)O)o2)nn2ccccc12 (single isomer, unassigned) noted as > 5 µM

Now take the following compound into account.
Lab book: AC50 of FC(F)(F)c1cccc2cc([C@@H]3c4nc[nH]c4CCN3c3nnc(C4CC4)o3)nn12 (single isomer, unassigned) noted as 1 to 5 µM
